Numbers sourced from ChEMBL document CHEMBL4665695.

MIC: recorded values
- Tested on: Candida albicans
- TEST: Antifungal activity against Candida albicans SC5314 by CLSI protocol-based broth serial dilution method
- Type: functional

Examples from the recorded data:
{"columns": ["COMPOUND", "MIC"],
 "data": [
  ["O=C(Oc1cc(O)c2c(c1)O[C@@H](c1ccc(O)c(O)c1)CC2)c1cc(O)c(O)c(O)c1", "14.8 µM"],
  ["O=C(Oc1cc(O)c2c(c1)O[C@H](c1ccc(O)c(O)c1)CC2)c1cc(O)c(O)c(O)c1", "14.8 µM"],
  ["COc1c(O)cc(C(=O)O)cc1O", "> 272 µM"],
  ["O=c1c(O[C@@H]2O[C@H](CO)[C@@H](O)[C@H](O)[C@H]2O)c(-c2ccc(O)c(O)c2)oc2cc(O)cc(O)c12 [ISOQUERCETIN]", "> 108 µM"],
  ["Oc1cc(O)c2c(c1)O[C@H](c1ccc(O)c(O)c1)[C@@H](O)C2 [CIANIDANOL]", "> 690 µM"]
]}

// returns reported MIC for input COc1cc(O)c2c(=O)c(O[C@@H]3O[C@@H](C)[C@H](O)[C@@H](O)[C@H]3O)c(-c3ccc(O)c(O)c3)oc2c1
> 433 µM

What do we get for COc1cc(O)c2c(=O)c(O[C@@H]3O[C@@H](C)[C@H](O)[C@@H](O)[C@H]3O)c(-c3ccc(O)cc3)oc2c1 ?
> 112 µM

What do we get for O=C(Oc1ccc([C@H]2Oc3cc(O)cc(O)c3C[C@@H]2O)cc1O)c1cc(O)c(O)c(O)c1 ?
56.6 µM

What do we get for O=C(OC[C@H]1O[C@@H](Oc2c(-c3ccc(O)cc3)oc3cc(O)cc(O)c3c2=O)[C@H](O)[C@@H](O)[C@@H]1O)c1cc(O)c(O)c(O)c1 ?
> 83.3 µM

What do we get for OC(Cn1cncn1)(Cn1cncn1)c1ccc(F)cc1F [FLUCONAZOLE] ?
1.6 µM

====

- System: Candida albicans
- TEST: Antifungal activity against Candida albicans SC5314 by CLSI protocol-based broth serial dilution method
- Type: functional
EXPERIMENTAL_ENDPOINT: MIC

{"columns": ["MOLECULE", "EXPERIMENTAL_RESULT"],
 "data": [
  ["CCOC(=O)c1cc(O)c(O)c(O)c1 [ETHYLGALLATE]", "> 252 µM"]
]}

// returns reported MIC for input O=C(O[C@H]1[C@H](c2c(O)cc(O)c3c2O[C@H](c2ccc(O)c(O)c2)[C@@H](O)C3)c2c(O)cc(O)cc2O[C@@H]1c1ccc(O)c(O)c1)c1cc(O)c(O)c(O)c1
17.1 µM

What do we get for COc1cc(O)c2c(=O)c(O)c(-c3ccc(O[C@@H]4O[C@H](CO)[C@@H](O)[C@H](O)[C@H]4O)c(O)c3)oc2c1 ?
> 105 µM

What do we get for O=C(OC[C@H]1O[C@@H](Oc2c(-c3ccc(O)c(O)c3)oc3cc(O)cc(O)c3c2=O)[C@H](O)[C@@H](O)[C@@H]1O)c1cc(O)c(O)c(O)c1 ?
> 325 µM

====

- Tested on: Cryptococcus neoformans
- TEST: Antifungal activity against Cryptococcus neoformans JEC21 by CLSI protocol-based broth serial dilution method
- Type: functional
EXPERIMENTAL_ENDPOINT: MIC (µM)
The answer is to be given in µM; state only the numeric part.

{"columns": ["COMPOUND", "EXPERIMENTAL_ENDPOINT", "UNIT", "EXPERIMENTAL_RESULT"],
 "data": [
  ["O=c1c(O[C@@H]2O[C@H](CO)[C@@H](O)[C@H](O)[C@H]2O)c(-c2ccc(O)c(O)c2)oc2cc(O)cc(O)c12", "MIC", "µM", 108],
  ["COc1c(O)cc(C(=O)O)cc1O", "MIC", "µM", 272],
  ["O=C(Oc1ccc([C@H]2Oc3cc(O)cc(O)c3C[C@@H]2O)cc1O)c1cc(O)c(O)c(O)c1", "MIC", "µM", 113],
  ["COc1cc(O)c2c(=O)c(O[C@@H]3O[C@@H](C)[C@H](O)[C@@H](O)[C@H]3O)c(-c3ccc(O)cc3)oc2c1", "MIC", "µM", 56],
  ["O=C(OC[C@H]1O[C@@H](Oc2c(-c3ccc(O)cc3)oc3cc(O)cc(O)c3c2=O)[C@H](O)[C@@H](O)[C@@H]1O)c1cc(O)c(O)c(O)c1", "MIC", "µM", 83.3],
  ["OC(Cn1cncn1)(Cn1cncn1)c1ccc(F)cc1F", "MIC", "µM", 6.5]
]}

// returns reported MIC for input Oc1cc(O)c2c(c1)O[C@H](c1ccc(O)c(O)c1)[C@@H](O)[C@@H]2c1c(O)cc(O)c2c1O[C@H](c1ccc(O)c(O)c1)[C@@H](O)C2
5.4

What do we get for CC(=O)[C@@H](CC(=O)O)[C@H]1Oc2cc(O)cc(O)c2C[C@@H]1O ?
169

What do we get for O=C(Oc1cc(O)c2c(c1)O[C@@H](c1ccc(O)c(O)c1)CC2)c1cc(O)c(O)c(O)c1 ?
3.8

What do we get for O=C(Oc1cc(O)c2c(c1)O[C@H](c1ccc(O)c(O)c1)CC2)c1cc(O)c(O)c(O)c1 ?
3.8

What do we get for O=C(O[C@H]1[C@H](c2c(O)cc(O)c3c2O[C@H](c2ccc(O)c(O)c2)[C@@H](O)C3)c2c(O)cc(O)cc2O[C@@H]1c1ccc(O)c(O)c1)c1cc(O)c(O)c(O)c1 ?
8.5

====

- System: Candida albicans
- TEST: Antifungal activity against Candida albicans SC5314 by CLSI protocol-based broth serial dilution method
- Assay type: functional
EXPERIMENTAL_ENDPOINT: MIC

Examples from the recorded data:
{"columns": ["MOLECULE", "MIC"],
 "data": [
  ["CC(=O)[C@@H](CC(=O)O)[C@H]1Oc2cc(O)cc(O)c2C[C@@H]1O", "> 169 µM"],
  ["O=C(O)c1cc(O)c(O)c(O)c1 [GALLIC ACID]", "> 294 µM"],
  ["Oc1cc(O)c2c(c1)O[C@H](c1ccc(O)c(O)c1)[C@@H](O)[C@@H]2c1c(O)cc(O)c2c1O[C@H](c1ccc(O)c(O)c1)[C@@H](O)C2", "> 86.5 µM"]
]}

// switching to the query molecule
Hello, I am looking for reported MIC with Candida albicans for O=C(Oc1cc(O)c2c(c1)O[C@H](c1ccc(O)c(O)c1)[C@@H](O)C2)c1cc(O)c(O)c(O)c1 . Could you help?
56.6 µM

====

- Tested on: Candida albicans
- TEST: Antifungal activity against Candida albicans SC5314 by CLSI protocol-based broth serial dilution method
- Assay type: functional
EXPERIMENTAL_ENDPOINT: MIC

Examples from the recorded data:
{"columns": ["ENTRY_SMILES", "EXPERIMENTAL_RESULT"],
 "data": [
  ["COc1cc(O)c2c(=O)c(O[C@@H]3O[C@H](COC(=O)c4cc(O)c(O)c(O)c4)[C@@H](O)[C@H](O)[C@H]3O)c(-c3ccc(O)c(O)c3)oc2c1", "> 317 µM"],
  ["C[C@]12OC(=O)C[C@H]1[C@H]1Oc3cc(O)cc(O)c3C[C@H]1O2", "> 180 µM"]
]}

// switching to the query compound
Hello, I am looking for reported MIC with Candida albicans for O=C(Oc1cc([C@H]2Oc3cc(O)cc(O)c3C[C@@H]2O)ccc1O)c1cc(O)c(O)c(O)c1 . Could you help?
> 113 µM

====

- Test system: Cryptococcus neoformans
- TEST: Antifungal activity against Cryptococcus neoformans JEC21 by CLSI protocol-based broth serial dilution method
- Assay type: functional
EXPERIMENTAL_ENDPOINT: MIC (µM)
The answer is to be given in µM; state only the numeric part.

Examples from the recorded data:
{"columns": ["COMPOUND", "EXPERIMENTAL_ENDPOINT", "EXPERIMENTAL_RESULT"],
 "data": [
  ["O=C(O)c1cc(O)c(O)c(O)c1", "MIC", 147],
  ["C[C@]12OC(=O)C[C@H]1[C@H]1Oc3cc(O)cc(O)c3C[C@H]1O2", "MIC", 180],
  ["COc1cc(O)c2c(=O)c(O)c(-c3ccc(O[C@@H]4O[C@H](CO)[C@@H](O)[C@H](O)[C@H]4O)c(O)c3)oc2c1", "MIC", 105],
  ["O=C(Oc1cc([C@H]2Oc3cc(O)cc(O)c3C[C@@H]2O)ccc1O)c1cc(O)c(O)c(O)c1", "MIC", 113]
]}

// switching to the query compound
Hello, I am looking for reported MIC with Cryptococcus neoformans for CCOC(=O)c1cc(O)c(O)c(O)c1 [ETHYLGALLATE] . Could you help?
252
